- Tested on: MDA-MB-435
- METHOD: NCI tumour cell line growth inhibition, 48 h
The source made the active and inactive calls. No stated cut-off is given here; in the data, active = GI50 up to about 1.1 µM and inactive = higher.
Permitted responses: yes = active, no = inactive

- COc1ccccc1NS(=O)(=O)c1ccc2ncn(NS(=O)(=O)c3ccc(Cl)cc3)c(=O)c2c1: no

*Q* Would you mind telling me which call this test gave "Cc1nc2c(O)c3c(c(O)c2nc1C)C1C=CC3CC1" ?
*A* no

###

- Tested on: KM12
- METHOD: NCI tumour cell line growth inhibition, 48 h
Active and inactive are the calls of the source. Cut-off read from the data, not from the text of the source: active = GI50 up to about 1.1 µM and inactive = higher.
MEASURE_NAME: GI50

Consider the worked cases shown below.
- N#Cc1ccc(/N=C(/NCC(=O)O)Nc2cccc3ccccc23)cc1: > 10 µM (inactive)
- COc1cc(OC)cc(-c2cc(O)c3cc4c(cc3n2)OCO4)c1: 0.17 µM (active)
- CCN(CC)Cc1cc(Nc2c3ccccc3nc3c4ccccc4n(C)c23)cc(CN(CC)CC)c1O: 6.58 µM (inactive)
- COc1ccc2nc3cc(Cl)ccc3c(NCCCNCCCNc3c4ccc(Cl)cc4nc4ccc(OC)cc34)c2c1: 0.0208 µM (active)

For record "CCN(CCCl)c1cc(CN(C)C)cc(NC(=O)c2ccc(C(=O)Nc3ccccc3)cc2)c1" the listed GI50 is 1.06 µM (active)

For record "CC(C)[C@@H](COC(C)(C)C)/N=C/N1CCc2c([nH]c3ccccc23)C1" the listed GI50 is > 100 µM (inactive)

For record COC(=O)C12OCC34C(CC5C(C)=CC(=O)C(O)C5(C)C3C(O)C1O)OC(=O)C(OC(=O)CC(C)C)C24 (configuration not stated) the listed GI50 is 0.00166 µM (active)

For record "COc1ccc(/C=C2\OC(=O)C(Cl)=C2c2ccc(OC)cc2)cc1" the listed GI50 is > 100 µM (inactive)

For record O=C1C(=Cc2ccco2)C(=O)C2CCCCC12 (configuration not stated) the listed GI50 is > 100 µM (inactive)

For record O=C1CCC2(CC1CC[S+]([O-])c1ccccc1)OCCO2 (configuration not stated) the listed GI50 is > 100 µM (inactive)

###

- System: SF-539
- METHOD: NCI tumour cell line growth inhibition, 48 h
Active and inactive are the calls of the source. No stated cut-off is given here; in the data, active = GI50 up to about 1.1 µM and inactive = higher.
Permitted responses: active, inactive

Use the examples below as a reference point.
* CC(C)(C)N1CC2(CCCCC2)C1=O | inactive
* C=C1C(=O)O[C@H](c2ccoc2)C[C@@H]1[C@@]1(C)CCCC2(C)C(=O)OCC21 (some centres not stated) | inactive
* Oc1ccc(/C=C/c2ccc3cccc(O)c3n2)cc1O | inactive

*Q* Would you mind telling me which call this test gave O=C1C(Br)=C[C@H]2C3C=CC(Br)(C3=O)[C@@H]12 (some centres not stated) ?
*A* inactive

*Q* Would you mind telling me which call this test gave "O=C(CCc1cc(O)cc(O)c1)NCCCNC(=O)CCc1cc(O)cc(O)c1" ?
*A* inactive

*Q* Would you mind telling me which call this test gave "COc1c(C)c2c(c(C)c1Cl)Oc1c(C=O)c(O)c(Cl)c(C)c1C(=O)O2" ?
*A* inactive

*Q* Would you mind telling me which call this test gave CC(C(=O)N1C(=O)N(C(=O)C(C)C(O)c2ccccc2)C(c2ccccc2)C1c1ccccc1)C(O)c1ccccc1 (configuration not stated) ?
*A* inactive

*Q* Would you mind telling me which call this test gave "c1ccc(/C(=N\Nc2nc3ccccc3s2)c2ccccn2)cc1" ?
*A* inactive

*Q* Would you mind telling me which call this test gave "C(/Cc1ccc2c(c1)OCO2)=N\N=C1NCCN1" ?
*A* inactive

*Q* Would you mind telling me which call this test gave C1CC2CN(CCCN3CCOCC3)C(C1)O2 (configuration not stated) ?
*A* inactive

*Q* Would you mind telling me which call this test gave COc1ccc(C2SCc3nc4ccccc4n32)cc1 (configuration not stated) ?
*A* inactive

*Q* Would you mind telling me which call this test gave "CC1(C)N=C(N)N=C(N)N1c1ccc(CCCCCCc2ccc(S(=O)(=O)F)cc2)cc1" ?
*A* active

###

- Tested on: RXF 393
- METHOD: NCI tumour cell line growth inhibition, 48 h
Calls of active or inactive are those of the source. No stated cut-off is given here; in the data, active = GI50 up to about 1.1 µM and inactive = higher.
Permitted responses: yes (active), no (inactive)

• CC(C)(C)C(=O)CC(=O)C(F)(F)C(F)(F)C(F)(F)F = no
• CCOC(=O)c1c(NC(=O)c2ccccc2)c(C#N)c2n1CCCCC2 = no
• CNC(=O)N1N[C@H](c2ccccc2)[C@@H]1c1ccccc1.OB(O)O = no

*Q* Would you mind telling me which call this test gave C1CC2CN(CCCN3CCOCC3)C(C1)O2 (stereo unspecified) ?
*A* no

*Q* Would you mind telling me which call this test gave COC(=O)C1=C(OC(=O)/C=C/c2ccccc2)C(C(=O)OC)[C@@]2(O)[C@@H](C(=O)OC)[C@H](C)C[C@@H]1[C@@H]2C(=O)OC (stereo partly specified) ?
*A* no

*Q* Would you mind telling me which call this test gave "Cc1nnc(Nc2ccccc2)o1" ?
*A* no

*Q* Would you mind telling me which call this test gave O=C1C(Br)=C[C@H]2C3C=CC(Br)(C3=O)[C@@H]12 (stereo partly specified) ?
*A* no

*Q* Would you mind telling me which call this test gave "N#C/C(=C(\O)C(=O)O)c1ccc(-c2cccc3ccccc23)cc1" ?
*A* no

###

- Tested on: OVCAR-5
- METHOD: NCI tumour cell line growth inhibition, 48 h
Calls of active or inactive are those of the source. Cut-off read from the data, not from the text of the source: active = GI50 up to about 1.1 µM and inactive = higher.
Permitted responses: T (active), F (inactive)

* CNC(=O)SCC(N)C(=O)O (stereo not given) | F
* CN(C)CCCN=C(N)N | F
* C=C1C(=O)O[C@H](c2ccoc2)C[C@@H]1[C@@]1(C)CCCC2(C)C(=O)OCC21 (stereo not given in full) | F

*Q* Would you mind telling me which call this test gave Nc1ncnc2c1ncn2C1OC(CO)C2OC21 (stereo not given) ?
*A* F

*Q* Would you mind telling me which call this test gave O=C(O)COc1ccc2c3c1C(=O)CCC3CO2 (stereo not given) ?
*A* F

*Q* Would you mind telling me which call this test gave "O=C1c2c(ccc3c2CCC3)CC12Cc1ccccc1C2" ?
*A* F

*Q* Would you mind telling me which call this test gave CN(C)CCC(=O)N1CCc2c([nH]c3ccccc23)C1c1cccnc1 (stereo not given) ?
*A* F

*Q* Would you mind telling me which call this test gave "O=c1c2cc(S(=O)(=O)O)ccc2nc(COc2ccc(Oc3ccc(Cl)cc3Cl)cc2)n1-c1ccc(Oc2ccc(Cl)cc2)cc1Cl" ?
*A* F

###

- System: SN12C
- METHOD: NCI tumour cell line growth inhibition, 48 h
Activity calls are given as the source filed them. Rule as the data show it: active = GI50 up to about 1.1 µM and inactive = higher.
MEASURE_NAME: GI50

Consider the worked cases shown below.
* Cc1cc2c(c(=O)o1)C1=S(SC(c3ccccc3)=C1)S2 (stereo not given) | 67.3 µM (inactive)
* O=C(C(=O)c1ccc(Cc2ccc(C(=O)C(=O)c3ccccc3)cc2)cc1)c1ccccc1 | > 100 µM (inactive)
* O=C(Cc1ccccc1)NN1C(=O)/C(=C\c2ccccc2)S/C1=N\c1ccccc1 | > 100 µM (inactive)
* COc1cc(/C=C(\C#N)C(=O)c2ccccc2)ccc1OCc1ccccc1 | > 100 µM (inactive)

For record "NS(=O)(=O)c1ccc(NC(=O)c2cc([N+](=O)[O-])cc([N+](=O)[O-])c2)cc1" the listed GI50 is 21.7 µM (inactive)

###

- System: MCF7
- METHOD: NCI tumour cell line growth inhibition, 48 h
Calls of active or inactive are those of the source. No stated cut-off is given here; in the data, active = GI50 up to about 1.1 µM and inactive = higher.
Permitted responses: 1.0 for active, 0.0 for inactive

Use the examples below as a reference point.
* N#C[C@H](c1nc2ccccc2[nH]1)c1nc2ccccc2nc1Cl | 0.0
* Cc1ccc2[nH]c3[nH]c(=O)[nH]c(=O)c3c2c1 | 0.0
* CCc1nc(Cl)c(Cl)c(Cl)n1 | 0.0
* COc1ccccc1NS(=O)(=O)c1ccc2ncn(NS(=O)(=O)c3ccc(Cl)cc3)c(=O)c2c1 | 0.0
* c1ccc2c(OCC3CO3)ccc(OCC3CO3)c2c1 (stereo unspecified) | 1.0

Now consider the entry below.
*Q* Would you mind telling me which call this test gave "CC(C)(C)N1Cc2ccccc2/C(=C/Sc2ccccc2)C1=O" ?
*A* 0.0

###

GI50 values, listed per item
- System: U-251
- METHOD: NCI tumour cell line growth inhibition, 48 h
Calls of active or inactive are those of the source. No stated cut-off is given here; in the data, active = GI50 up to about 1.1 µM and inactive = higher.

Consider the worked cases shown below.
- C=C1CC2OC2(C(=O)O[C@H]2CCC3[C@@H]4CCC5=CC(=O)CC[C@]5(C)C4CC[C@@]32C)C1=O (some centres undefined): 8.97 µM (inactive)
- COc1cc(/C=C2/Oc3c(OC)cccc3C2=O)ccc1O: > 100 µM (inactive)

For record "CCCc1c(C(=O)OCC)[nH]c(C(=O)CCC(=O)c2[nH]c(C(=O)OCC)c(CCC)c2C(=O)OCC)c1C(=O)OCC" the listed GI50 is > 100 µM (inactive)

For record "COc1c(-c2nc3ccc(N4CCN(C)CC4)cc3[nH]2)cc(OC)c2[nH]c(CO)nc12" the listed GI50 is 74.8 µM (inactive)
